Kindly supply the reported fold change of Tryptamine concentration values for the records listed here.
- System: Ruminococcus gnavus DSM 108212
- assay text: fold change of Tryptamine concentration vs plate DMSO controls (fold change (ratio)); higher = more amine produced, active = hit call of the paper (significant change in both replicates, either direction)
- measurement parameters: incubation time: 27 h, anaerobic, 37 °C
Counter-ions that a name gives are not always drawn.
One number for each entry.

Below, each entry is followed by its recorded fold change of Tryptamine concentration result.
// returns reported fold change of Tryptamine concentration for input O=C(O[C@@H]1C[C@@H]2C[C@H]3C[C@H](C1)N2CC3=O)c1c[nH]c2ccccc12 [Dolasetron mesilate] (20 µM) 1.02

Any idea what fold change of Tryptamine concentration was measured for CCCCCCCCNC(C)C(O)c1ccc(SC(C)C)cc1 (stereo unspecified) [Suloctidil] (20 µM) ? 0.729

// fold change of Tryptamine concentration lookup, key: CO/N=C1\CN(c2nc3c(cc2F)c(=O)c(C(=O)O)cn3C2CC2)CC1CN (stereo unspecified) [Gemifloxacin mesylate] (20 µM) 0.148

Data request, read-out fold change of Tryptamine concentration, for O=C(O)C[C@H](O)C[C@H](O)/C=C/c1c(C2CC2)nc2ccccc2c1-c1ccc(F)cc1 [Pitavastatin calcium] (20 µM) 0.997

// each compound listed below needs its fold change of Tryptamine concentration
1. CN(C)C(=O)COC(=O)Cc1ccc(OC(=O)c2ccc(NC(=N)N)cc2)cc1 [Camostat mesylate] (20 µM)
2. O=C(O)c1cn(-c2ccc(F)cc2)c2cc(N3CCNCC3)c(F)cc2c1=O [Sarafloxacin] (20 µM)
3. CCCCN1CCCCC1C(=O)Nc1c(C)cccc1C (stereo unspecified) [Bupivacaine hydrochloride] (20 µM)
4. N[C@@H](CSCCCO)C(=O)O [Fudosteine] (20 µM)

0.982
0.8
1.01
1

// each compound listed below needs its fold change of Tryptamine concentration
1. CC(=O)Oc1ccccc1C(=O)Oc1ccccc1C(=O)O [Acetylsalicylsalicylic acid] (20 µM)
2. COc1ccc(C(=O)CC(=O)c2ccc(C(C)(C)C)cc2)cc1 [Avobenzone] (20 µM)
3. COc1ccc2[nH]cc(CCNC(C)=O)c2c1 [Melatonin] (20 µM)
4. COc1cc(C(=O)NC2CCCNC2)cc(OC)c1OC (stereo unspecified) [Troxipide] (20 µM)
5. CC(COc1ccccc1)NC(C)C(O)c1ccc(O)cc1 (stereo unspecified) [Isoxsuprine hydrochloride] (20 µM)
6. CC(C)(C)NC(=O)[C@@H]1C[C@@H]2CCCC[C@@H]2CN1C[C@@H](O)[C@H](Cc1ccccc1)NC(=O)[C@H](CC(N)=O)NC(=O)c1ccc2ccccc2n1 [Saquinavir mesylate] (20 µM)
7. C[C@H]1O[C@H](O[C@H]2[C@H](O)[C@@H](O)[C@@H](O[C@@H]([C@H](O)[C@@H](O)C=O)[C@H](O)CO)O[C@@H]2CO)[C@H](O)[C@@H](O)[C@@H]1N[C@H]1C=C(CO)[C@@H](O)[C@H](O)[C@H]1O [Acarbose] (20 µM)
8. CC(C)(C)c1ccc(C(=O)CCCN2CCC(OC(c3ccccc3)c3ccccc3)CC2)cc1 [Ebastine] (20 µM)

1: 1.06; 2: 1.02; 3: 1.01; 4: 1.06; 5: 0.977; 6: 0.979; 7: 0.997; 8: 0.856

Provide reported fold change of Tryptamine concentration for each item, in the same order as listed.
1. C[C@@H]1C[C@H]2[C@@H]3C[C@H](F)C4=CC(=O)C=C[C@]4(C)[C@@]3(F)[C@@H](O)C[C@]2(C)[C@@]1(O)C(=O)COC(=O)C(C)(C)C [Flumethasone pivalate] (20 µM)
2. CO[C@@]1(NC(=O)Cc2cccs2)C(=O)N2C(C(=O)O)=C(COC(N)=O)CS[C@@H]21 [Cefoxitin sodium salt] (20 µM)
3. CNCCC=C1c2ccccc2C=Cc2ccccc21 [Norcyclobenzaprine] (20 µM)
4. CCN(Cc1ccncc1)C(=O)C(CO)c1ccccc1 (stereo unspecified) [Tropicamide] (20 µM)

1: 1.04; 2: 0.0768; 3: 0.939; 4: 0.984

Hi, could you look up fold change of Tryptamine concentration for each item in my list?
1. O=c1[nH]c(=O)n([C@H]2C[C@H](O)[C@@H](CO)O2)cc1/C=C/Br [Brivudine] (20 µM)
2. CCS(=O)(=O)CCn1c([N+](=O)[O-])cnc1C [Tinidazole] (20 µM)

1: 1.04; 2: 0.0414

Okay, here is my list. What is fold change of Tryptamine concentration for each of these?
1. CC1CCc2c(N3CCC(O)CC3)c(F)cc3c(=O)c(C(=O)O)cn1c23 (stereo unspecified) [Nadifloxacin] (20 µM)
2. Cc1c(NC(=O)c2cccnc2)c(=O)n(-c2ccccc2)n1C [Nifenazone] (20 µM)
3. COc1nc(N)nc2c1ncn2[C@@H]1O[C@H](CO)[C@@H](O)[C@@H]1O [Nelarabine] (20 µM)
4. Cc1ncc([N+](=O)[O-])n1C [Dimetridazole] (20 µM)
5. CC1COc2c(N3CCN(C)CC3)c(F)cc3c(=O)c(C(=O)O)cn1c23 (stereo unspecified) [Ofloxacin] (20 µM)

[0.271, 1.02, 1.03, 0.218, 0.997]

// each listed compound needs a value for fold change of Tryptamine concentration
1. CN1CCN2c3ncccc3Cc3ccccc3C2C1 (stereo unspecified) [Mirtazapine] (20 µM)
2. CCN(CC)C(=O)N1CCN(C)CC1 [Diethylcarbamazine citrate] (20 µM)
3. COC1=C(OC)C(=O)C(CCCCCCCCCCO)=C(C)C1=O [Idebenone] (20 µM)
4. Oc1c(I)cc(Cl)c2cccnc12 [Clioquinol] (20 µM)

[1.06, 0.976, 1.06, 0.628]
